// provenance: patent US20130287781A1

Target: T1, GST-human NOGO-A56 (human)
T1 construct: Expressed in E. coli BL21 from pGEX-6P1 and purified on glutathione-sepharose; the GST tag is part of the protein in the assays; also called GST-Nogo-A 5+6; GST Nogo-A 5 + 6
T1 sequence (chain, as listed by the source limits assumed): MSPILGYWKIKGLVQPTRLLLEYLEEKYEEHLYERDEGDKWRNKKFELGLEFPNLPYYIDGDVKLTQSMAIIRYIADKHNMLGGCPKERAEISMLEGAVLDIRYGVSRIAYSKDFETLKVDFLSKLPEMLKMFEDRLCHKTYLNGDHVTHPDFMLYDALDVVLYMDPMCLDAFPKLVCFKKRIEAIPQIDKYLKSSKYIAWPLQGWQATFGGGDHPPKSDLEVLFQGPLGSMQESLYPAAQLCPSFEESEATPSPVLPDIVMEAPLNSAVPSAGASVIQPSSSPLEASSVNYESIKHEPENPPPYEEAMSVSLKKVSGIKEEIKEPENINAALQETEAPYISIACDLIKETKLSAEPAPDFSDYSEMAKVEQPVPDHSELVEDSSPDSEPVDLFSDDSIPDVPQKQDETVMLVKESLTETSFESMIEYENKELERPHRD
Experiment: SPR (Biacore), GST-human NOGO-A56 amine-coupled to CM5, antibody flowed over, 25 C
readout.type: koff

- binder: "H27L13 (antibody, human IgG1, kappa, V domains shown, IgG1 (L235A, G237A) / kappa; CAMPATH-1H signal (1-19) left out) VH: QVQLVQSGAEVKKPGASVKVSCKASGYTFTSYWMHWVKQRPGQGLEWIGNINPSNGGTNYNEKFKSKATLTVDKSTSTAYMELSSLRSEDTAVYYCELMQGYWGQGTLVTVSS VL: DIVMTQSPLSLPVTLGQPASISCRSSKSLLYKDGKTYLNWFQQRPGQSPQLLIYLMSTRASGVPDRFSGGGSGTDFTLKISRVEAEDVGVYYCQQLVEYPLTFGQGTKLEIKR"
  recorded.result: "0.00183 s⁻¹"
- binder: "HcLc (chimera of 2A10: murine 2A10 VH and VL with human IgG constant regions) (antibody, V domains shown, also called chimeric antibody; chimeric form of the parental antibody) VH: QVQLQQPGTELVKPGASVKLSCKASGYTFTSYWMHWVKQRPGQGLEWIGNINPSNGGTNYNEKFKSKATLTVDKSSSTAYMQLSSLTSEDSAVYYCELGQGYWGQGTLVTVSS VL: DIVITQDELSNPVTSGESVSISCRSSKSLLYKDGKTYLNWFLQRPGQSPQLLIYLMSTRASGVSDRFSGSGSGTDFTLEISRVKAEDVGVYYCQQLVEYPLTFGAGTKLELKR"
  recorded.result: "0.00233 s⁻¹"

// switching to the query binder
So for H28L13 (antibody, human IgG1, kappa, V domains shown, IgG1 (L235A, G237A) / kappa; CAMPATH-1H signal (1-19) left out; also called H28FL L13FL) VH: QVQLVQSGAEVKKPGASVKVSCKASGYTFTSYWMHWVRQAPGQGLEWIGNINPSNGGTNYNEKFKSKATMTRDTSTSTAYMELSSLRSEDTAVYYCELMQGYWGQGTLVTVSS VL: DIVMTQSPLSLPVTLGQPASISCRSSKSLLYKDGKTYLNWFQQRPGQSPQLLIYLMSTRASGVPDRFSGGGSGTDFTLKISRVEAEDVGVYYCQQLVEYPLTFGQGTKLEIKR , the logged koff turned out to be 0.00317 s⁻¹
